pKi, Cloned Human Serotonin Receptor, Subtype 7 (h5HT7) (Homo sapiens), per-entry values.
pKi: −log10 of the molar value.
REPORTED_ENDPOINT: pKi

                                   compound  test_result
0  Cc1nn(C)c(C)c1-c1ccc2c(c1)C([N+](C)(C)C)CC2 (stereo not shown)         6.82

A = Cc1cccc(C)c1-c1ccc2c(c1)C(N(C)C)CC2 (stereo not shown)
B = CNC1CCc2ccc(-c3c(Cl)cccc3OC)cc21 (stereo not shown)
C = COc1cccc(Cl)c1-c1ccc2c(c1)C(N(C)C)CC2 (stereo not shown)
Rank order required: pKi, descending. In plain terms: list the labels in the order you were asked to. C, B, A
(C: 7.59, B: 7.25, A: 6.70)
